Target: SRPK1(h) (Homo sapiens, UniProt Q96SB4)
Sequence (Q96SB4 whole entry): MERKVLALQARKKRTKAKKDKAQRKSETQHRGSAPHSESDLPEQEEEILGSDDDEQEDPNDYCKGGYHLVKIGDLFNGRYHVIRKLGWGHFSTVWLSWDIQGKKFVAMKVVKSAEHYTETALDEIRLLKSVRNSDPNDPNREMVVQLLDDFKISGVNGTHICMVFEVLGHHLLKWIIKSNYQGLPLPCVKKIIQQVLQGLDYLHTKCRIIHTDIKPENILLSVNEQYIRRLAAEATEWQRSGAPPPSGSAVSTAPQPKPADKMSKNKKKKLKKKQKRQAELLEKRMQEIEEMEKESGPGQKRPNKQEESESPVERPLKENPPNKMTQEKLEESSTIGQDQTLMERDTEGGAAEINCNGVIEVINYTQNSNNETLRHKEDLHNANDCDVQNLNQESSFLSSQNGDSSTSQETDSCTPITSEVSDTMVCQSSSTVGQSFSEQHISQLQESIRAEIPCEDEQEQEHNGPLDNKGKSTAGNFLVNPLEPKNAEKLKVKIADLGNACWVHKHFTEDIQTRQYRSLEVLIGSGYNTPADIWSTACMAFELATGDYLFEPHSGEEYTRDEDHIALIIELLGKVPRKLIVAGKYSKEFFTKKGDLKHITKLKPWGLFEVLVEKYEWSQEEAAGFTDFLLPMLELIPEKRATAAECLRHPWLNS
Assay: Kinase Profiling Assay
Format: biochemical
Conditions: 100 μM
valueKind: % activity

Need % activity, item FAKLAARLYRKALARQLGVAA [MMI-0300]
90%

Same thing, different sequence: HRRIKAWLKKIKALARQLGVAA [MMI-0500]
80%

Same thing, different sequence: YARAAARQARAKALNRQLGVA [MMI-0200]
93%

Same thing, different sequence: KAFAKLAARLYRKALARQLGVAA [MMI-0400]
96%

###

Biological target: ErbB4(h) (Homo sapiens, UniProt Q15303)
Sequence (Q15303 26-1308): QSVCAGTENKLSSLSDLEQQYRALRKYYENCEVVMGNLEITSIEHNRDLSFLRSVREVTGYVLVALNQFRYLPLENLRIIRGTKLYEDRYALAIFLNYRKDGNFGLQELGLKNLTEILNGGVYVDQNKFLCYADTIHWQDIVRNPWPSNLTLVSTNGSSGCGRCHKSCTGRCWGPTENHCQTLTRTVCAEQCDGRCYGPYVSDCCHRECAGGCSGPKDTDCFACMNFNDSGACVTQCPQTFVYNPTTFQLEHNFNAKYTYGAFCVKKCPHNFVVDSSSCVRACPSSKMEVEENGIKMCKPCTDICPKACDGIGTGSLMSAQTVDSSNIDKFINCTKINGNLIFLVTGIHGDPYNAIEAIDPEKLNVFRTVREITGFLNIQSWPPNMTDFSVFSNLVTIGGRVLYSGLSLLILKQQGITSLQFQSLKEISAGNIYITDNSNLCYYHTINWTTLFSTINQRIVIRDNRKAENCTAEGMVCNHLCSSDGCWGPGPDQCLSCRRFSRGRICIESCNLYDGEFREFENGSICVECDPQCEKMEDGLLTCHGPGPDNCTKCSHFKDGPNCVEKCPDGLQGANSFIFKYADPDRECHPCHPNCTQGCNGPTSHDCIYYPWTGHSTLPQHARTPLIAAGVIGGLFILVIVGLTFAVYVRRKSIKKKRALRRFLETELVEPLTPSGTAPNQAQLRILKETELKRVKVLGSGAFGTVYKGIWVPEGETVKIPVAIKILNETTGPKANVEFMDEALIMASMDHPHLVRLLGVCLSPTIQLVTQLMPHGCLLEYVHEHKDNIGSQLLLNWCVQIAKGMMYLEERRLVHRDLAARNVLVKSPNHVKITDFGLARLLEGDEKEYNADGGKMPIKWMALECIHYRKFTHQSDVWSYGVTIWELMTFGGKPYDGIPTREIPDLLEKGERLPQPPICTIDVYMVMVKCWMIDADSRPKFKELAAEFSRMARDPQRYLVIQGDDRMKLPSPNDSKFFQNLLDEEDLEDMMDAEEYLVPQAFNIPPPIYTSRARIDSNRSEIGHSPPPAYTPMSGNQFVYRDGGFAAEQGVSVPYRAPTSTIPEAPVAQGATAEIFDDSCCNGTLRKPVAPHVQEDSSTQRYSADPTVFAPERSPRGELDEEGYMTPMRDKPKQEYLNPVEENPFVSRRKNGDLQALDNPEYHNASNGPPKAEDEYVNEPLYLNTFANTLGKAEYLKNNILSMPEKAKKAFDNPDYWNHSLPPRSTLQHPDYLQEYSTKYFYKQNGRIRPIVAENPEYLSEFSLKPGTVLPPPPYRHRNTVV
Experiment: Kinase Profiling Assay
Type: biochemical
Conditions: 100 μM
valueKind: % activity (%)
Report the value in % with no unit label.

Under ErbB4(h) (Homo sapiens, UniProt Q15303): % activity value of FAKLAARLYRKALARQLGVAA [MMI-0300] ?
40

Same thing, different sequence: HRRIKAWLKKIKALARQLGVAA [MMI-0500]
2

Same thing, different sequence: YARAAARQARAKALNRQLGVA [MMI-0200]
82

Same thing, different sequence: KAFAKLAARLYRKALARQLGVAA [MMI-0400]
0

###

Target: KDR(h) (Homo sapiens)
Sequence (P35968 20-1356): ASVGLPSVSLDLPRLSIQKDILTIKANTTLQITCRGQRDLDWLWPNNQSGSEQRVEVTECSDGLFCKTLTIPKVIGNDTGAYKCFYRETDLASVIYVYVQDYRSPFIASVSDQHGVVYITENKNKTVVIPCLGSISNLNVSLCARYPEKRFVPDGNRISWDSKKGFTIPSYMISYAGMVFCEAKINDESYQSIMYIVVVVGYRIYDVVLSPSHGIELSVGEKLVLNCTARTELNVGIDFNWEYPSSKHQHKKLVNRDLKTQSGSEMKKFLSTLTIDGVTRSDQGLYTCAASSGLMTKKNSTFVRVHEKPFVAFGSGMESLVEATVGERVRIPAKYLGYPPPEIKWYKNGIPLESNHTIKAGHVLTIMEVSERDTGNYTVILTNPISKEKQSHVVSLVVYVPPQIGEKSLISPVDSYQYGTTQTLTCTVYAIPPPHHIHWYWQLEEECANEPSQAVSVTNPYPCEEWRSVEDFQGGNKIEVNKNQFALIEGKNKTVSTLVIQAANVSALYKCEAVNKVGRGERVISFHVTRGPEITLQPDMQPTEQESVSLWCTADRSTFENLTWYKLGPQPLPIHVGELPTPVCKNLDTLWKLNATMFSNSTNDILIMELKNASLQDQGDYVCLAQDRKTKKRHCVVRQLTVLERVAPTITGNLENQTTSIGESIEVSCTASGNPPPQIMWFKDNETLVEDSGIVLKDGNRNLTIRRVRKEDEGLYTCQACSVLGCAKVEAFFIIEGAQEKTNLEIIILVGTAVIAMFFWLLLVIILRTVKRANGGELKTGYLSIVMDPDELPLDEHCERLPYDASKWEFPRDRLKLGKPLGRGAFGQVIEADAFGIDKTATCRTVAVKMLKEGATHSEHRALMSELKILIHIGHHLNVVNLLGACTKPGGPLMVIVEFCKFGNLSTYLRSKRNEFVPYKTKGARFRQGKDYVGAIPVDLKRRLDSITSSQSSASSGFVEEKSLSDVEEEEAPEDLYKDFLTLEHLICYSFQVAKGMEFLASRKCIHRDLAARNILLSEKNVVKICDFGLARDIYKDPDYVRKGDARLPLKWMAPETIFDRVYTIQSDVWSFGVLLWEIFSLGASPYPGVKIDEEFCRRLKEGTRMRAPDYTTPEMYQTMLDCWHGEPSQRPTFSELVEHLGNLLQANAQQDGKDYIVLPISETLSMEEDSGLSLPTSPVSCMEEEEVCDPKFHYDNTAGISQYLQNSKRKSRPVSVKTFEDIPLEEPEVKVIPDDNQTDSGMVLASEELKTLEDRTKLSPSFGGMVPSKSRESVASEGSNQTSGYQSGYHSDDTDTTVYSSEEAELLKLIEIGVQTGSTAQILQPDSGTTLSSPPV
Assay: Kinase Profiling Assay
Assay type: biochemical
Conditions: 100 μM
valueKind: % activity (%)
Report the value in % with no unit label.

Need % activity, item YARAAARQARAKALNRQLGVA [MMI-0200]
110

Same thing, different sequence: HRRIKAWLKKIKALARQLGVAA [MMI-0500]
15

Same thing, different sequence: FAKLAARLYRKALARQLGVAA [MMI-0300]
101

Same thing, different sequence: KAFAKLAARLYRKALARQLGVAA [MMI-0400]
94

###

Target: CaMKIIβ(h) (Homo sapiens, UniProt Q13554)
Sequence (Q13554 whole entry): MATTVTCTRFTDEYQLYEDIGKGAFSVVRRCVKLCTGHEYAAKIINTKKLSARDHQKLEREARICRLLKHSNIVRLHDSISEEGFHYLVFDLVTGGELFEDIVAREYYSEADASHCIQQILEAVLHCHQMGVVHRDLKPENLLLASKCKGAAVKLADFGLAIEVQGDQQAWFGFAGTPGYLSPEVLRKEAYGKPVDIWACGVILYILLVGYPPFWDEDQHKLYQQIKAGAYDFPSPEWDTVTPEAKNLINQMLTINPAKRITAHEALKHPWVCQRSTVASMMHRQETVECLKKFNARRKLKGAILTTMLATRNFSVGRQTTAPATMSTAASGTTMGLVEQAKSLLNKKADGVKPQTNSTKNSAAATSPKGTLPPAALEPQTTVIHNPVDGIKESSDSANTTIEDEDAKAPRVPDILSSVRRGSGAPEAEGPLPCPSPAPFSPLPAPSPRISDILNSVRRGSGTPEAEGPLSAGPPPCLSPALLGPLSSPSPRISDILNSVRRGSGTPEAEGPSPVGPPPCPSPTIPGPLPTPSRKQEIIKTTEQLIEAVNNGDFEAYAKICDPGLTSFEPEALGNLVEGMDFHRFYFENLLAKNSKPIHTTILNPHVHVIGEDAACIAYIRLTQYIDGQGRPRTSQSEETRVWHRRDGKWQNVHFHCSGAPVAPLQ
Test: Kinase Profiling Assay
Format: biochemical
Conditions: 100 μM
valueKind: % activity (%)
Report the value in % with no unit label.

Under CaMKIIβ(h) (Homo sapiens, UniProt Q13554): % activity value of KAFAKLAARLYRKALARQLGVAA [MMI-0400] ?
11

Same thing, different sequence: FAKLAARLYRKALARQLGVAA [MMI-0300]
2

Same thing, different sequence: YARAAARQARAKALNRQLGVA [MMI-0200]
53

Same thing, different sequence: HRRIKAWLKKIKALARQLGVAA [MMI-0500]
3

###

Molecular target: PKCδ(h) (Homo sapiens)
Sequence (Q05655 whole entry): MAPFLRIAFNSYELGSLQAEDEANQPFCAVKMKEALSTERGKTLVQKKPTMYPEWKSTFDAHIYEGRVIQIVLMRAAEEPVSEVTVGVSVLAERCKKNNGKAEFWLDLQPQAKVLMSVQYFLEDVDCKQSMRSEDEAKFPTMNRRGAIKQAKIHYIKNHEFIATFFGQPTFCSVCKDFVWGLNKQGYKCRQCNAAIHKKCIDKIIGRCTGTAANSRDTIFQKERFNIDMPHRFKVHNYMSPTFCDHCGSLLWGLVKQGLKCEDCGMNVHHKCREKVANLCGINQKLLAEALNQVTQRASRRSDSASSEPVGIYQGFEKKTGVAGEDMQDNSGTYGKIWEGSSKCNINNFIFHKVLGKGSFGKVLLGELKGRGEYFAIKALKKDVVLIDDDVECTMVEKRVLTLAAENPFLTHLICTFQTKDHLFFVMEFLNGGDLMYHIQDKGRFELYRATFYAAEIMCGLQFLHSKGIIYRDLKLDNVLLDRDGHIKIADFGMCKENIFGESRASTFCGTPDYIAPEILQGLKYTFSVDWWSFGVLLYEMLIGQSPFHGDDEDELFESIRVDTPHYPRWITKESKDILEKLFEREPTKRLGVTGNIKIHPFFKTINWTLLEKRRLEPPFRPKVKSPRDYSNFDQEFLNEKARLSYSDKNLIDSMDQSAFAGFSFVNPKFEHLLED
Assay: Kinase Profiling Assay
Format: biochemical
Settings: 100 μM
valueKind: % activity (%)
Report the value in % with no unit label.

Need % activity, item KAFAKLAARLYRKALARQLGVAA [MMI-0400]
90

Same thing, different sequence: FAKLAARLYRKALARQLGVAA [MMI-0300]
101

Same thing, different sequence: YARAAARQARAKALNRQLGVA [MMI-0200]
101

Same thing, different sequence: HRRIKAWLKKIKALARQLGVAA [MMI-0500]
61

###

Can you tell me % activity for the items I'm about to list?
Molecular target: BRK(h) (Homo sapiens)
Sequence (Q13882 whole entry): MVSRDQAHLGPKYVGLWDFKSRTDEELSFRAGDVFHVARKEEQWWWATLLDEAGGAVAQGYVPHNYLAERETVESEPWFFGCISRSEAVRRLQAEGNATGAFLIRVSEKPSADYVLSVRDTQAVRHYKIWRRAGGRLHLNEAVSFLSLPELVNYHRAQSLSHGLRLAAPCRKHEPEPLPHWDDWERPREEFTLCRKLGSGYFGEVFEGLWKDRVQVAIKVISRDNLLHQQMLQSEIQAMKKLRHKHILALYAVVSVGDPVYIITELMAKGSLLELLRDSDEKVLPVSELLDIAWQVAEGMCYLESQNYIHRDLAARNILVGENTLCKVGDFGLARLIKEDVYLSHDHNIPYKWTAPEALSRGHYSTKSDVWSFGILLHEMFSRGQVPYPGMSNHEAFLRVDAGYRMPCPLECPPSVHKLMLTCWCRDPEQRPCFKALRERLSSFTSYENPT
Test: Kinase Profiling Assay
Assay type: biochemical
Details: 100 μM
Report the value in % with no unit label.

Need % activity, item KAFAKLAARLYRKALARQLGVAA [MMI-0400]
18

Same thing, different sequence: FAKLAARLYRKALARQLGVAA [MMI-0300]
35

Same thing, different sequence: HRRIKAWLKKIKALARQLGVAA [MMI-0500]
41

Same thing, different sequence: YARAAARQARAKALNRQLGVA [MMI-0200]
127

Value source: patent US20190134153A1
